# Target Or System: full-length NS3/NS4A-2 (HCV NS3 protease) (Hepatitis C virus genotype 1a)
# Construct: Recombinant E. coli or Baculovirus full-length NS3 was diluted to 3.33 μM with assay buffer; made in house; host or cells: E. coli or baculovirus (BV) expression system
# Sequence (P27958 1027-1657): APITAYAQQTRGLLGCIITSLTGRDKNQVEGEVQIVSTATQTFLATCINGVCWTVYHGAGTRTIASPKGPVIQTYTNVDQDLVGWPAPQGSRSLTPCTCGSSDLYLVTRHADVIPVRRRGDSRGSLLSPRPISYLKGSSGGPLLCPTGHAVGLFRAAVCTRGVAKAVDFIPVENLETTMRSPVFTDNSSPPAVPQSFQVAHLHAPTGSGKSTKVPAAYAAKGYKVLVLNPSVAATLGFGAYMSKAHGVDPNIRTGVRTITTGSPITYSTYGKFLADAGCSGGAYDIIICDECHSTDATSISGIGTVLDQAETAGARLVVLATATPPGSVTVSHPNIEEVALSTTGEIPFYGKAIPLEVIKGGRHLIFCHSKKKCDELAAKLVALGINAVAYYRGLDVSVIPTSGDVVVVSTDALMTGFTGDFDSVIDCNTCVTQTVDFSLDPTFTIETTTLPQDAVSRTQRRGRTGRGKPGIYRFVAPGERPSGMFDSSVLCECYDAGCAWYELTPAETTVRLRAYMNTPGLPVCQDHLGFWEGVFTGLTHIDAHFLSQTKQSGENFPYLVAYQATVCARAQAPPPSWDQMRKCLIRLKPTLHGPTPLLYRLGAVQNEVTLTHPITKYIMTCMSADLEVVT
# Method Notes: NS3-NS4 protease assay / NS3 inhibition assay (RETS1 substrate, fluorescence kinetic read)
# Type: biochemical
# Condition Parameters: recombinant E. coli or Baculovirus full-length NS3 with NS4A-2; read-out: NS3-NS4 IC50
pIC50: −log10 of the molar value.
Metric Name: pIC50

Dear colleague, I am looking for the recorded pIC50 of the following molecule: `CC(C)(C)OC(=O)N[C@H]1CCCCC/C=C\[C@@H]2C[C@@]2(C(=O)NS(=O)(=O)C2CC2)NC(=O)[C@@H]2C[C@@H](OC(=O)N3Cc4cccc(Br)c4C3)CN2C1=O` > 7.00

Entry to check: `N[C@H]1CCC(F)(F)CC/C=C\[C@@H]2C[C@@]2(C(=O)NS(=O)(=O)C2CC2)NC(=O)[C@@H]2C[C@@H](OC(=O)N3Cc4ccccc4C3)CN2C1=O` > 7.00

Entry to check: `CC(C)(C)OC(=O)N[C@H]1CCCCC/C=C\[C@@H]2C[C@@]2(C(=O)NS(=O)(=O)Nc2ccc(C(F)(F)F)cc2)NC(=O)[C@@H]2CCCN2C1=O` > 6.00

Entry to check: `COCC1(S(=O)(=O)NC(=O)[C@@]23C[C@H]2/C=C\CCCCC[C@H](NC(=O)OC(C)(C)C)C(=O)N2CCC[C@H]2C(=O)N3)CC1` > 5.00

Entry to check: `CC(C)NS(=O)(=O)NC(=O)[C@@]12C[C@H]1/C=C\CCCCC[C@H](NC(=O)OC1CCCC1)C(=O)N1C[C@H](OC(=O)N3Cc4cccc(F)c4C3)C[C@H]1C(=O)N2` > 7.00

----------
# Target Or System: full-length NS3/NS4A-2 (HCV NS3 protease) (Hepatitis C virus genotype 1a)
# Construct: Recombinant E. coli or Baculovirus full-length NS3 was diluted to 3.33 μM with assay buffer; made in house; host or cells: E. coli or baculovirus (BV) expression system
# Method Notes: NS3-NS4 protease assay / NS3 inhibition assay (RETS1 substrate, fluorescence kinetic read)
# Assay type: biochemical
# Condition Parameters: Table 22; read-out: NS3-NS4 IC50
Give measured IC50 for each item. Keep answers brief.

Query IC50 on full-length NS3/NS4A-2 (HCV NS3 protease) (Hepatitis C virus genotype 1a) for `CC(C)(C)OC(=O)N[C@H]1CCCCC/C=C\[C@@H]2C[C@@]2(C(=O)NCCc2ccccc2)NC(=O)[C@@H]2CCCN2C1=O` < 100 nM

Entry to check: `Cc1ccc(NC(=O)[C@@]23C[C@H]2/C=C\CCCCC[C@H](NC(=O)OC(C)(C)C)C(=O)N2CCC[C@H]2C(=O)N3)cc1` < 1000 nM

Entry to check: `COc1ccccc1NC(=O)[C@@]12C[C@H]1/C=C\CCCCC[C@H](NC(=O)OC(C)(C)C)C(=O)N1CCC[C@H]1C(=O)N2` < 1000 nM

Entry to check: `CC(C)(C)OC(=O)N[C@H]1CCCCC/C=C\[C@@H]2C[C@@]2(C(=O)NCC2CC2)NC(=O)[C@@H]2CCCN2C1=O` < 10000 nM

Entry to check: `CC(C)(C)OC(=O)N[C@H]1CCCCC/C=C\[C@@H]2C[C@@]2(C(=O)NC2CC2)NC(=O)[C@@H]2CCCN2C1=O` < 1000 nM

Entry to check: `CC(C)(C)CNC(=O)[C@@]12C[C@H]1/C=C\CCCCC[C@H](NC(=O)OC(C)(C)C)C(=O)N1CCC[C@H]1C(=O)N2` < 1000 nM

Values were extracted from patent US7829665B2.
